Tested on: SK-HEP1
Method notes: Growth inhibition of human SKHEP1 cells after 48 hrs by SRB assay
Format: functional
Condition notes: SK-HEP1, 48 h
Criterion: GI50 strictly under 4 µM. Met: 1 (yes). Not met: 0 (no).

Look over these answered cases.
A record lists CN1CCN(CCc2ccc(C(c3ccccc3)C34CC5CC(CC(C5)C3)C4)cc2)CC1 (stereo not given) . Is its GI50 below 4 µM?
1 (yes)

Repeat with CCN1CCN(Cc2ccc(C(c3ccccc3)C34CC5CC(CC(C5)C3)C4)cc2)CC1 (stereo not given)
0 (no)

Similarly, c1ccc(C(c2ccc(CCCN3CCCCC3)cc2)C23CC4CC(CC(C4)C2)C3)cc1 (stereo not given) ?
1 (yes)

Next record, please: c1ccc(C(c2ccc(CN3CCNCC3)cc2)C23CC4CC(CC(C4)C2)C3)cc1 (stereo not given)
1 (yes)

Here is the next item to consider.
Regarding O=c1[nH]cc(F)c(=O)[nH]1 [FLUOROURACIL] , kindly confirm whether its GI50 is beneath 4 µM.
0 (no)

====

Listed below: GI50 values for each entry.
Test system: IGROV-1
Method notes: Growth inhibition of human IGROV1 cells after 48 hrs by SRB assay
Assay type: functional
Condition notes: IGROV-1, 48 h
Value and unit, in that order.

Here's what some known entries look like.
Which GI50 is listed for CCN1CCN(CCc2ccc(C(c3ccccc3)C34CC5CC(CC(C5)C3)C4)cc2)CC1 (stereo unspecified) ?
4.49 µM

Please do the same for c1ccc(C(c2ccc(CCN3CCCCC3)cc2)C23CC4CC(CC(C4)C2)C3)cc1 (stereo unspecified) as well.
17.7 µM

Another molecule to check: CN1CCN(CCCc2ccc(C(c3ccccc3)C34CC5CC(CC(C5)C3)C4)cc2)CC1 (stereo unspecified)
4.54 µM

Subsequent entry: O=c1[nH]cc(F)c(=O)[nH]1
8.12 µM

Next molecule: c1ccc(C(c2ccc(CCCN3CCNCC3)cc2)C23CC4CC(CC(C4)C2)C3)cc1 (stereo unspecified)
3.29 µM

# context switch: different molecule, same GI50
Bench note: what GI50 did CN1CCN(CCc2ccc(C(c3ccccc3)C34CC5CC(CC(C5)C3)C4)cc2)CC1 (stereo unspecified) show?
4.29 µM

====

Method notes: Displacement of [3H]1,3-di-otolylguanidine from sigma 2 receptor in rat cerebral cortex membranes
Type: cell membranes, Membrane
The label 1 is reserved for IC50 strictly under 0.09 µM; 0 covers values equal to or above it.

A record lists CN1CCN(Cc2ccc(C(c3ccccc3)C34CC5CC(CC(C5)C3)C4)cc2)CC1 (stereo unspecified) . Is its IC50 below 0.09 µM?
0

For c1ccc(C(c2ccc(CCCN3CCNCC3)cc2)C23CC4CC(CC(C4)C2)C3)cc1 (stereo unspecified) then?
0

Same question for c1ccc(C(c2ccc(CCCN3CCCCC3)cc2)C23CC4CC(CC(C4)C2)C3)cc1 (stereo unspecified) please.
1

For CN1CCN(CCCc2ccc(C(c3ccccc3)C34CC5CC(CC(C5)C3)C4)cc2)CC1 (stereo unspecified) then?
1

New cases:
Answer whether the compound c1ccc(CN2CCN(CCCc3ccc(C(c4ccccc4)C45CC6CC(CC(C6)C4)C5)cc3)CC2)cc1 (stereo unspecified) has IC50 strictly less than 0.09 µM
1

For CN1CCN(CCc2ccc(C(c3ccccc3)C34CC5CC(CC(C5)C3)C4)cc2)CC1 (stereo unspecified) then?
1

This collection of values is drawn from ChEMBL document CHEMBL2202989.
